# assayed.target: human HDAC1 (hHDAC1) (Homo sapiens, UniProt Q13547)
# Sequence (Q13547 whole entry): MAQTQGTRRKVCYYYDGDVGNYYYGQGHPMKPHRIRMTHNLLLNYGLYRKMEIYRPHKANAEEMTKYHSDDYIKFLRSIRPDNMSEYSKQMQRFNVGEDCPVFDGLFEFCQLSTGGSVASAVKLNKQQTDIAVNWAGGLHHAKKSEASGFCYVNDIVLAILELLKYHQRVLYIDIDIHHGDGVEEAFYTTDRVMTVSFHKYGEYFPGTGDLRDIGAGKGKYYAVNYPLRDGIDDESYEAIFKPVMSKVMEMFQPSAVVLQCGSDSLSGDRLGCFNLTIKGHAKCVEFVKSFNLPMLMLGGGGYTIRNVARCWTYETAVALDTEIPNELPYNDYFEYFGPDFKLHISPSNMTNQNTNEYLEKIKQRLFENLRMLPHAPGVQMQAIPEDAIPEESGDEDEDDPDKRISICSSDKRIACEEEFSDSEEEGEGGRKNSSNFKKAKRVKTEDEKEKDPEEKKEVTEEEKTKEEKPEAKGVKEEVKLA
pIC50 overview
For clarity, pIC50 is expressed as the negative log10 of concentration in mol/L.

query: Look up pIC50 with human HDAC1 (hHDAC1) (Homo sapiens, UniProt Q13547) for this molecule: C[C@@H]1CC[C@H]2[C@@H](C)C(SCCCCCC(=O)NO)O[C@@H]3O[C@@]4(C)CC[C@@H]1[C@]32OO4 (stereo partly drawn)
result: 6.37

query: Value wanted: pIC50 (human HDAC1 (hHDAC1) (Homo sapiens, UniProt Q13547)) of entry C[C@H]1[C@H](OCc2ccc(C(=O)NO)cc2)O[C@@H]2O[C@@]3(C)CC[C@H]4[C@H](C)CC[C@@H]1[C@@]24OO3
result: 5.60

###

# System: Healthy Fibroblast 1
# assay.details: Cytotoxicity against healthy fibroblast 1
# Assay type: cell-based
# condition.context: Homo sapiens, healthy individually-derived fibroblasts
This listing pairs compounds with measured IC50.
The response must be a number in µM with no trailing unit.

compound: C[C@H]1[C@@H](SCc2ccc(C(=O)NO)cc2)O[C@@H]2O[C@@]3(C)CC[C@H]4[C@H](C)CC[C@@H]1[C@@]24OO3 [(α)-7c]
units: µM
measured.value: 12.7
--
compound: C[C@H]1[C@H](SCc2ccc(C(=O)NO)cc2)O[C@@H]2O[C@@]3(C)CC[C@H]4[C@H](C)CC[C@@H]1[C@@]24OO3 [(β)-7c]
units: µM
measured.value: 14.7

query: Report IC50 for C[C@@H]1CC[C@H]2[C@@H](C)C(OCc3ccc(/C=C/C(=O)NO)cc3)O[C@@H]3O[C@@]4(C)CC[C@@H]1[C@]32OO4 (stereo partly shown) [Compound 7a] tested on Healthy Fibroblast 1.
result: 13.1

###

# Tested on: HL60 cells
# assay.details: CellTiter-Glo cell viability assay, HL60
# Type: cell-based, human
# condition.context: Homo sapiens, HL-60; AML; 72 h, CellTiter-Glo, n = 3
assay.metric: IC50 (µM)
Please respond with the number in µM and leave the unit unwritten.

compound: C[C@H]1[C@H](OCc2ccc(C(=O)NO)cc2)O[C@@H]2O[C@@]3(C)CC[C@H]4[C@H](C)CC[C@@H]1[C@@]24OO3 [Compound 7d]
IC50 / µM: 2.41

query: Find IC50 (HL60 cells) for the entry C[C@H]1[C@@H](O)O[C@@H]2O[C@@]3(C)CC[C@H]4[C@H](C)CC[C@@H]1[C@@]24OO3 [DHA, dihydroartemisinin]
result: 3.57

query: What measured IC50 is associated with C[C@@H]1CC[C@H]2[C@@H](C)C(SCCCCCC(=O)NO)O[C@@H]3O[C@@]4(C)CC[C@@H]1[C@]32OO4 (stereo partly drawn) [Compound 7b] on HL60 cells?
result: 2.07

query: Item C[C@@H]1CC[C@H]2[C@@H](C)C(OCc3ccc(/C=C/C(=O)Nc4ccccc4N)cc3)O[C@@H]3O[C@@]4(C)CC[C@@H]1[C@]32OO4 (stereo partly drawn) [Compound 8] with HL60 cells - IC50?
result: 1.64

query: What reported IC50 corresponds to C[C@H]1[C@@H](SCc2ccc(C(=O)NO)cc2)O[C@@H]2O[C@@]3(C)CC[C@H]4[C@H](C)CC[C@@H]1[C@@]24OO3 [(α)-7c] on HL60 cells?
result: 1.02

query: Request: IC50, test system HL60 cells, entry C[C@H]1[C@H](SCc2ccc(C(=O)NO)cc2)O[C@@H]2O[C@@]3(C)CC[C@H]4[C@H](C)CC[C@@H]1[C@@]24OO3 [(β)-7c]
result: 2.34
